biological target: unphosphorylated c-FMS kinase (uFMS, Seq. ID no. 1) (Homo sapiens, UniProt P07333); test: uFMS kinase assay (pyruvate kinase/lactate dehydrogenase coupled); settings: ATP 500 μM
Sequence (P07333 538-972): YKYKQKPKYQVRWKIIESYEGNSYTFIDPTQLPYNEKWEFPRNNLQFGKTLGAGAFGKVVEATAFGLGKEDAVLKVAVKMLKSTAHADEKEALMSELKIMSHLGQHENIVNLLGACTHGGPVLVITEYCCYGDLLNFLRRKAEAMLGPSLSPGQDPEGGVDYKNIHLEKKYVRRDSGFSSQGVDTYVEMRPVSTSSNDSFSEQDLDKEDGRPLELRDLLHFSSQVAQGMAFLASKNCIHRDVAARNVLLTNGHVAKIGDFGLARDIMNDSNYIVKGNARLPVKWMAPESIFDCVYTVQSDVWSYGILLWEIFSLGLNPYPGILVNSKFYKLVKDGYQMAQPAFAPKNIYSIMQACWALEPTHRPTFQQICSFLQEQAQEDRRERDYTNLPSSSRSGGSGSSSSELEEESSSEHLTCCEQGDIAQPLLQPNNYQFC
endpoint-label: IC50

>  <molecule>
CC(=O)Nc1cc(Oc2ccc(NC(=O)NC(=O)C(C)C)nc2)ccn1

>  <IC50>
10 to 100 nM

$$$$
>  <molecule>
CN(C)[C@@H]1CCN(C(=O)Nc2cc(Oc3ccc(NC(=O)NC(=O)C(C)(C)C)nc3)ccn2)C1

>  <IC50>
< 10 nM

$$$$

For `CCC(=O)NC(=O)Nc1ccc(Oc2ccnc(NC(C)=O)c2)cn1` , what is its reported IC50?
100 to 1000 nM

Suppose we examine the molecule `Cc1nc(NC(=O)NC(=O)C(C)(C)C)ccc1Oc1ccnc(NC(=O)N2CCN(C)CC2)c1` ; what IC50 value has been reported?
< 10 nM

====

// pIC50 lookup, one value per entry
biological target: unphosphorylated c-KIT kinase (uKIT, Seq. ID no. 2) (Homo sapiens); construct: uKit with N-terminal GST fusion used for; assay: uKit kinase assay (pyruvate kinase/lactate dehydrogenase coupled); conditions: ATP 2000 μM
Sequence (P10721 with tags, fused parts or gaps): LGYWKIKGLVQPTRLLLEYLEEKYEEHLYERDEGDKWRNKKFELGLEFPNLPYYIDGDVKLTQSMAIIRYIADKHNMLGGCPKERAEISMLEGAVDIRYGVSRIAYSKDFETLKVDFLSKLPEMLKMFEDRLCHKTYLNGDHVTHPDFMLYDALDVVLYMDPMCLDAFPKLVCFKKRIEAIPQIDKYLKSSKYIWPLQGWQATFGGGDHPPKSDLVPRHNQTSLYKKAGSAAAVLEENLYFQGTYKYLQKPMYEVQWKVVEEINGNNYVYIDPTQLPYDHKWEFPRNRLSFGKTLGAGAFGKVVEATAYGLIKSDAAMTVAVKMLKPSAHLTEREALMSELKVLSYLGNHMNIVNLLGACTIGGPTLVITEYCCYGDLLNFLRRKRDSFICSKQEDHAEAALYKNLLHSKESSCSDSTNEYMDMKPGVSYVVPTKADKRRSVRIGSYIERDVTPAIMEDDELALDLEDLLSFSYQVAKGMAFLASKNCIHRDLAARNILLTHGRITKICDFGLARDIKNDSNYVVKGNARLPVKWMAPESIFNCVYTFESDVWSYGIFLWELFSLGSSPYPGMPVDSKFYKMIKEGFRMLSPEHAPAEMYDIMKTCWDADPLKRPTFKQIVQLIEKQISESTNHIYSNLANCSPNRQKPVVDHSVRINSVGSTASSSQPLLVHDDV
pIC50: −log10 of the molar value.

Some compounds with known pIC50 results, for comparison:
>  <compound>
Cc1nc(NC(=O)NC(=O)C(C)(C)C)ccc1Oc1ccnc(NC(=O)N2CCOCC2)c1 [Example 63]

>  <endpoint-label>
pIC50

>  <assay-result>
< 6.00

$$$$
>  <compound>
CC(C)(C)C(=O)NC(=O)Nc1ccc(Oc2ccnc(NC(=O)N3CCNCC3)c2)cn1 [Example 83]

>  <endpoint-label>
pIC50

>  <assay-result>
< 6.00

$$$$
>  <compound>
CC(=O)Nc1cc(Oc2ccc(NC(=O)NC(=O)C3CCOC3)nc2C)ccn1 (stereo not drawn) [Example 14]

>  <endpoint-label>
pIC50

>  <assay-result>
< 6.00

$$$$
>  <compound>
CC(=O)Nc1cc(Oc2ccc(NC(=O)NC(=O)C3(C)CCC3)nc2)ccn1 [Example 44]

>  <endpoint-label>
pIC50

>  <assay-result>
6.00 to 7.00

$$$$
>  <compound>
CC(=O)Nc1cc(Oc2ccc(NC(=O)NC(=O)C3CC4CCC3O4)nc2)ccn1 (stereo not drawn) [Example 28]

>  <endpoint-label>
pIC50

>  <assay-result>
6.00 to 7.00

$$$$
>  <compound>
CC1(C(=O)NC(=O)Nc2ccc(Oc3ccnc(NC(=O)C4CC4)c3)cn2)CC1 [Example 30]

>  <endpoint-label>
pIC50

>  <assay-result>
7.00 to 8.00

$$$$

Using the record for CC(=O)Nc1cc(Oc2ccc(NC(=O)NC(=O)C3(C)CC3)nc2)ccn1 [Example 19] , report its pIC50.
6.00 to 7.00

State the recorded pIC50 for this entry: CC(C)(C)C(=O)NC(=O)Nc1ccc(Oc2ccnc(NC(=O)N3CCOCC3)c2)cn1 [Example 46]
6.00 to 7.00

====

system: osteoclast precursors; test: Osteoclast tartrate-resistant acid phosphatase assay; format: cell-based; details: Osteoclast; 7-14 days, RANKL and M-CSF
endpoint-label: IC50

Observe how each entry below is paired with its result.
>  <structure-as-smiles>
CCC(=O)Nc1cc(Oc2ccc(NC(=O)NC(=O)C3CCOCC3)nc2)ccn1

>  <IC50>
10 to 100 nM

$$$$
>  <structure-as-smiles>
CN1CCN(C2CCN(C(=O)Nc3cc(Oc4ccc(NC(=O)NC(=O)C(C)(C)C)nc4)ccn3)CC2)CC1

>  <IC50>
< 10 nM

$$$$
>  <structure-as-smiles>
CC(=O)Nc1cc(Oc2cnc(NC(=O)NC(=O)C(C)(C)C)cc2C)ccn1

>  <IC50>
< 10 nM

$$$$

// moving on: another record for IC50
Suppose we examine the molecule `O=C(NC(=O)C1CCOCC1)Nc1ccc(Oc2ccnc(NC(=O)C3CC3)c2)cn1` ; what IC50 value has been reported?
< 10 nM
